Hi there, I'd appreciate the recorded growth for every entry that follows.
- Test system: NCI-H460 lung
- assay-comment: NCI-60 one-dose screen, 48 h (100 = growth as untreated, 0 = no growth, -100 = all killed)
- condition-label: 10 µM unless noted
- Procedure: Growth inhibition of the NCI-H460 human Non-Small Cell Lung tumor cell line is measured as a screen for anti-cancer activity. Cells are grown in 96 well plates and exposed to the test compound for 48 hours. Compounds are tested at a single concentration, which is 10^-5 M for most compounds. The reported endpoint is percent growth (GI% or GIPRCNT), where numbers from 0 - 100% represent growth inhibition, and numbers from -100% - 0 represent cell death. […]
The panel holds about 83,000 compounds, 20% with a hit somewhere; the sample as a whole holds those more often.
Answers are plain numbers, in %.

As a guide, the following entries are already answered.
>>> print(df.to_string())
                                   compound  result_type  result_units  meas_value
0          CCOC(=O)Cc1csc2nc(-c3ccccc3)nn12       growth             %         108
1  Cc1cnc(Nc2ccc(OCCN3CCCC3)cc2)nc1NCc1ccco1       growth             %        72.8
2                CC(C)OC(=O)NNC(=O)c1ccncc1       growth             %         106
3              CCCCCCNc1cc(C)nc2ccc(OC)cc12       growth             %        61.6
4  C=C(C)[C@@H]1CC[C@]2(CO)CC[C@]3(C)[C@H](CC[C@@H]4[C@@]5(C)C=C(C#N)C(=O)C(C)(C)[C@@H]5CC[C@]43C)[C@@H]12       growth             %        -7.1
5  O=C(Nc1ccccc1)c1sc(-c2cccc(C(F)(F)F)c2)cc1O       growth             %        49.4
6  CCn1c(Sc2nnc(NC(=O)CSC(=S)N3CCCCC3)s2)nc2c1c(=O)n(C)c(=O)n2C       growth             %         101
7  CCNCCNc1cc(-c2cccc(C(F)(F)F)c2)c(C#N)c2nc3ccccc3n12       growth             %       -70.4

Take each entry in turn and give its growth.
1. O=C(C[C@@]1(O)C(=O)Nc2c(Cl)ccc(Cl)c21)c1ccc(C2CC2)cc1
2. OC(CBr)c1ccnc2ccccc12 (stereo not given)
3. O=C(O)C1C[C@](O)(c2ccc(F)cc2)[C@@H](c2ccc(F)cc2)O1 (stereo not given in full)
4. COc1ccc(C2CC(c3ccccc3)=NN2c2nc(C)c(C(C)=O)s2)cc1 (stereo not given)
5. CN(CCCCCCCCNc1ccnc2ccccc12)Cc1ccc(-c2ccc(-c3ccc(C#N)cc3)s2)cc1
6. Cc1cc(Cl)nc(N(CCCNc2ccnc3cc(Cl)ccc23)Cc2ccccn2)n1

OUTPUT:
6.3
105
101
106
-76.3
48.7

Take each entry in turn and give its growth.
1. O=C(Oc1ccc([N+](=O)[O-])cc1)c1ccc(CBr)cc1
2. Cc1cnc(Nc2ccc(N3CCN(C)CC3)cc2)nc1Nc1ccc(Cl)c(NS(=O)(=O)C(C)(C)C)c1
3. O[C@H]1CO[C@H]2[C@@H]1OC[C@@H]2Oc1ccc(Nc2ccnc(Nc3ccc(O[C@H]4CO[C@H]5[C@@H]4OC[C@@H]5O)c(Cl)c3)n2)cc1Cl
4. Cc1ccc(S(=O)(=O)Nc2sccc2-c2nc(-c3ccccc3)no2)cc1
5. CC(=O)Nc1cccc(C2=CC(c3ccc(C)cc3)n3ncnc3N2)c1 (stereo not given)

OUTPUT:
[100, 20.5, 1.27, 92.3, 107]

INPUT: Quickly give me recorded growth for O=c1cc(-c2ccc(OCc3ccccc3)cc2)oc2c(I)c(OCc3ccccc3)cc(OCc3ccccc3)c12
OUTPUT: 99.2
